Biological target: Vanilloid Receptor-1 (VR1) (Homo sapiens)
Construct: endogenous in cells; host or cells: HEK-293 clones 5B11 and 5B5
Assay: VR1 calcium response assay in HEK-293 clones (VIPRII, 96-well)
Assay type: cell-based
Settings: clone 5B11; responses to 10 μM capsaicin; capsazepine 0.01-100 μM
readout: IC50 (µM)
Your answer is read as µM, so omit the unit and give the number.

Entry Oc1cc2c(cc1O)CN(C(=S)NCCc1ccc(Cl)cc1)CCC2 [capsazepine] under Vanilloid Receptor-1 (VR1) (Homo sapiens) had IC50 of 12.8

* * *

Target: Vanilloid Receptor-1 (VR1) (Homo sapiens, UniProt Q8NER1)
Construct: endogenous in cells
Sequence (Q8NER1 whole entry): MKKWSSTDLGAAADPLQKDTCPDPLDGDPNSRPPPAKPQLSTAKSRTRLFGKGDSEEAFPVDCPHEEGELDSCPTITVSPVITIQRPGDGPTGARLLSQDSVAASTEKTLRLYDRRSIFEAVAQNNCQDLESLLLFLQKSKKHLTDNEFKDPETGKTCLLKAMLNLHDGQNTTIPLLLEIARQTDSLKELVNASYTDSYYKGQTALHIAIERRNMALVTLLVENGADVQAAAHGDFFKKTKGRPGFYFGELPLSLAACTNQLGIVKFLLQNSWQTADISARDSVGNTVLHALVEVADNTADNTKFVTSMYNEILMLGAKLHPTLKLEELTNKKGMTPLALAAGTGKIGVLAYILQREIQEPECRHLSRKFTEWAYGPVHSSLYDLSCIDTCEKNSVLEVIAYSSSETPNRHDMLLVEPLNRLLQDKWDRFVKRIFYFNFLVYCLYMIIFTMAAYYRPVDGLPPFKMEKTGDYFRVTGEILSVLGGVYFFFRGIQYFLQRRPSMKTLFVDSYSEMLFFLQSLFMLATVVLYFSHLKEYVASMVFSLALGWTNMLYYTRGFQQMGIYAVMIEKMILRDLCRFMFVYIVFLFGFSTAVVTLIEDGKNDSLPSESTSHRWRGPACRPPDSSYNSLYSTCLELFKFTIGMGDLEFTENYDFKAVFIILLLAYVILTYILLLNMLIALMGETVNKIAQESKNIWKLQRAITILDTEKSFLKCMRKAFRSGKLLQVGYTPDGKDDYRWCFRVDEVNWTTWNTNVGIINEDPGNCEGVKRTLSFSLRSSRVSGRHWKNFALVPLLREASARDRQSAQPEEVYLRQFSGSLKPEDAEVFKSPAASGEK
Test: VR1 calcium response assay in HEK-293 clones (VIPRII, 96-well)
readout: EC50 (nM)
The answer is to be given in nM; state only the numeric part.

Kindly note the recorded EC50 for "C=C(C)[C@]12C[C@@H](C)[C@@]34O[C@](Cc5ccccc5)(O[C@@H]1[C@@H]3C=C(COC(=O)Cc1ccc(O)c(OC)c1)C[C@]1(O)C(=O)C(C)=C[C@@H]41)O2" , which is 427

* * *

Target: Mineralocorticoid receptor (MR) (Homo sapiens, UniProt P08235)
Sequence (P08235 726-964 limits assumed): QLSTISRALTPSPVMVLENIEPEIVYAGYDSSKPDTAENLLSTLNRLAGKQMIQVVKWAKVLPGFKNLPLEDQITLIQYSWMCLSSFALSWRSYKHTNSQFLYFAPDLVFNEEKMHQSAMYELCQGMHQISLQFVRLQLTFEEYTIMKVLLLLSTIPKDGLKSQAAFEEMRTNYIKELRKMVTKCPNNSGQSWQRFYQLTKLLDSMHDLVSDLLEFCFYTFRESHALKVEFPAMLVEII
Test: MR Gal4-DBD UAS β-lactamase reporter assay, HEK/UAS/GAL4-MR clone 1B4
readout: pEC50
Value format note: pEC50 is -log10 of concentration (mol/L); just state the number.

Sample "C[C@]12CCC(=O)C=C1CC[C@@H]1[C@@H]2[C@@H](O)C[C@@]2(C)[C@H]1CC[C@]2(O)C(=O)CO" , system: Mineralocorticoid receptor (MR) (Homo sapiens, UniProt P08235). Its pEC50 is 8.40
